Assay: Thermodynamic solubility at pH 6.5
Assay type: physicochemical
Details: buffer
endpoint_label: solubility thermodynamic (µg/mL)
# value in µg/mL; strip the unit string

Prompt: Consider the molecule CC(=O)N1CCN(c2ccc(C(=O)Nc3ccc(Cl)c(-c4ccccn4)c3)c(C)n2)CC1 and give its measured solubility thermodynamic.
Response: 6

Prompt: Consider the molecule Cc1nc(C(F)(F)F)ccc1C(=O)Nc1ccc(Cl)c(-c2ccccn2)c1 and give its measured solubility thermodynamic.
Response: 2

Prompt: Consider the molecule CS(=O)(=O)Nc1ccc(C(=O)Nc2ccc(Cl)c(-c3ccccn3)c2)c(Cl)c1 and give its measured solubility thermodynamic.
Response: 1

Prompt: Consider the molecule CS(=O)(=O)Cc1ccc(C(=O)Nc2ccc(Cl)c(-c3ccccn3)c2)c(Cl)c1 and give its measured solubility thermodynamic.
Response: 3

Prompt: Consider the molecule O=C(Nc1ccc(Cl)c(-c2ccccn2)c1)c1ccc(C(=O)N2CCS(=O)(=O)CC2)cc1Cl and give its measured solubility thermodynamic.
Response: 60

Prompt: Consider the molecule CS(=O)(=O)c1ccc(C(=O)Nc2ccc(Cl)c(-c3ccccn3)c2)c(Cl)c1 and give its measured solubility thermodynamic.
Response: 10

Prompt: Consider the molecule Cc1ncn(-c2ccc(C(=O)Nc3ccc(Cl)c(-c4ccccn4)c3)c(C)n2)n1 and give its measured solubility thermodynamic.
Response: 6

Prompt: Consider the molecule O=C(NCc1ccccn1)c1ccc(C(=O)Nc2ccc(Cl)c(-c3ccccn3)c2)c(Cl)c1 and give its measured solubility thermodynamic.
Response: 3

Prompt: Consider the molecule O=C(Nc1ccc(Cl)c(-c2ccccn2)c1)c1ccc(-n2cncn2)nc1 and give its measured solubility thermodynamic.
Response: 8
